The measured values listed here are drawn from patent US10280163B2.

measured-on: Recombinant IDO1 (Homo sapiens, UniProt P14902)
Construct: His tag (N); made in house; host or cells: E. coli
Sequence (P14902 whole entry): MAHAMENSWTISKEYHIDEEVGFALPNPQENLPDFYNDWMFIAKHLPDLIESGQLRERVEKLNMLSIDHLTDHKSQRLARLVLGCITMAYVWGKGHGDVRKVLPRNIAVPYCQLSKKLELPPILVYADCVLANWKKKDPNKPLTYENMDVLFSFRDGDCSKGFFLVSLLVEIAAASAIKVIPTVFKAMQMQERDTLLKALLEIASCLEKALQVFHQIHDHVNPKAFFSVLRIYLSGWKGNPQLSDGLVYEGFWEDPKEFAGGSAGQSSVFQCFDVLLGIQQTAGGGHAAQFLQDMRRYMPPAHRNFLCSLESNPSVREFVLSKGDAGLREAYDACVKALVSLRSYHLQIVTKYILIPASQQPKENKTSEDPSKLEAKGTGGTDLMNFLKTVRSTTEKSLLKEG
method-summary: IDO1 enzymatic assay
Assay type: biochemical
condition: Table 2, 8-substituted imidazo[1,5-a]pyridines; 50 nM IDO1, 1.3 mM D-tryptophan; read-out: Enzyme IC50 (nM) IDO1
quantity: IC50 (nM)
Dear colleague, please return just the value in nM, with no unit written.

Per the record, OC(c1c([C@H]2C[C@@H]2F)ccn2cncc12)C1CCCCC1 (single isomer, unassigned) [Example B128b] has IC50 of 39000

Entry CC(C)c1ccn2cncc2c1C(O)C1CCCCC1 (single isomer, unassigned) [Example B106b] — recorded IC50 = 1800

// IC50 value for OC(c1c(C2CCC2)ccn2cncc12)C1CCCCC1 (stereo not shown) : 630

Given item Cc1cc(C(O)CC2CCCCC2)c2cncn2c1 (stereo not shown) , the value recorded as its IC50 is 130

So, CCOC(COCC1(C(O)c2c(C3CC3)ccn3cncc23)CCCCC1)OCC (stereo not shown) ? Its IC50 was 2200

Lab note: measured IC50 of CC(C)(C)c1ccn2cncc2c1C(O)C1CCCCC1 (stereo not shown) was 1300

Recorded IC50 (compound OC(c1c(C2CC2)ccn2cncc12)C1C=CCCC1 (stereo not shown) ): 45

Entry O[C@@H](c1c(C2CC2)ccn2cncc12)C1CCCCC1 (single isomer, unassigned) [Example B107b] , IC50 reported as 21000

Form field IC50, entry CS(=O)(=O)N1CCCC(C(O)c2c(C3CC3)ccn3cncc23)C1 (single isomer, unassigned) [Example B130b] : 1200

Record Cc1ccn2cncc2c1C(O)C1CCCCC1 (stereo not shown) [Example B102] . Reported IC50: 23

Per the record, OC(c1c(C2CC2)ccn2cncc12)C1CC2CCC1C2 (stereo not shown) has IC50 of 53

// IC50 lookup, compound = O=C(NC1CC1)c1cccc(C(O)c2c(C3CC3)ccn3cncc23)c1 (stereo not shown) , result: 170

Sample O[C@H](c1c(C2CC2)ccn2cncc12)[C@H]1C[C@H]2CC[C@@H]1C2 [Example B122a] ; IC50 observed: 58

Form field IC50, entry OC(c1c(Cl)ccn2cncc12)C1CC=CCC1 (stereo not shown) : 61

The compound listed as OC(c1c(C2CC2)ccn2cncc12)[C@H]1CC[C@H](O)CC1 (single isomer, unassigned) [Example B119a] has a reported IC50 of 280

// IC50 lookup, compound = OC(c1c(C2CC2)ccn2cncc12)C1CCC(c2ccccc2)CC1 (single isomer, unassigned) [Example B143a] , result: 56

Entry OC(c1c(C2CC2)ccn2cncc12)C1CCC(c2ccccc2)CC1 (mixture of isomers) [Example B143] — recorded IC50 = 100

In plain terms, OC(c1c(C2CC2)ccn2cncc12)C1CC2CCC1CC2 (stereo not shown) has a documented IC50 of 440

compound O[C@H](c1c(C2CC2)ccn2cncc12)C1CC2CCC1C2 (single isomer, unassigned) [Example B122b] , IC50 observed: 78

Noted for CC(C)c1ccn2cncc2c1C(O)CC1CCCCC1 (stereo not shown) : its IC50 reads 59

Sample OC(c1c(C2CC2)ccn2cncc12)[C@H]1CC[C@@H](O)CC1 (single isomer, unassigned) [Example B119d] ; IC50 observed: 110

For reference, reported IC50 for O=C(O)C1CCCC(C(O)c2c(C3CC3)ccn3cncc23)C1 (stereo not shown) stands at 1000

Kindly note the recorded IC50 for OC(c1c(C2CC2)ccn2cncc12)C1CCCC1 (stereo not shown) , which is 35

IC50 reported for this compound OC(c1c(C(F)(F)F)ccn2cncc12)C1CCCCC1 (stereo not shown) : 85

According to the records, this compound Cc1ccn2cncc2c1C(O)C1CCCCC1 (single isomer, unassigned) [Example B102b] displays IC50 of 3100

Looking up CS(=O)(=O)N1CCCC(C(O)c2c(C3CC3)ccn3cncc23)C1 (single isomer, unassigned) [Example B130a] , I see its IC50 listed as 1400

Sample Cc1ccn2cncc2c1C(O)CC1CCCCC1 (stereo not shown) ; IC50 observed: 14

CC(C)(C)OC(=O)NCC(=O)N1CCCC(C(O)c2c(C3CC3)ccn3cncc23)C1 (stereo not shown) has a reported IC50 of 1700

IC50 reading for OC(c1cccn2cncc12)C1CCCCC1 (stereo not shown) : 1000

According to the records, this compound OC(CC1CC1)c1cccn2cncc12 (stereo not shown) displays IC50 of 6600

The reported IC50 of the compound CC(C)c1ccn2cncc2c1C(O)[C@H]1CC[C@H](O)CC1 (single isomer, unassigned) [Example B121a] was 210

Record OC(CCC1CCCCC1)c1cccn2cncc12 (stereo not shown) , field IC50: 620

The value of IC50 measured for the compound OC(c1c(C2CC2)ccn2cncc12)C1CCC(c2ccccc2)CC1 (single isomer, unassigned) [Example B143b] turned out to be 300

For record OC(c1c(C2CC2)ccn2cncc12)[C@H]1CC[C@H](O)CC1 (single isomer, unassigned) [Example B119b] the listed IC50 is 5500
